test system: CHO; experiment: The sensitizing capacity for colchicine treatment of parental (PAR)CHO cells at concentration 1.0 (mg/L); assay type: functional, Cricetulus griseus
Each record here notes measured Activity.
Lab note: write the figure by itself, no unit.

[ask] Dear colleague, I am looking for the recorded Activity of the following molecule: "CC[C@@H](C)[C@H]1C(=O)NCC(=O)N(C)[C@@H](C(C)C)C(=O)N[C@@H](Cc2ccc(OC)cc2)C(=O)O[C@H](C)C(=O)N2CCCC[C@H]2C(=O)N(C)[C@@H](C(C)C)C(=O)N[C@@H](C(C)C)C(=O)N(C)[C@H](CC=O)C(=O)N(C)[C@@H]([C@@H](C)CC)C(=O)N1C"
[reply] 8.2

[ask] Bench note: what Activity did "CC[C@@H](C)[C@H]1C(=O)NCC(=O)N(C)[C@@H](C(C)C)C(=O)N[C@@H](Cc2ccc(OC)cc2)C(=O)O[C@H](C)C(=O)N2CCCC[C@H]2C(=O)N(C)[C@@H](C(C)C)C(=O)N[C@@H](C(C)C)C(=O)N(C)[C@H](CC(=O)N2CCCCC2)C(=O)N(C)[C@@H]([C@@H](C)CC)C(=O)N1C" show?
[reply] 10

[ask] # lookup: Activity of "CC[C@@H](C)[C@H]1C(=O)NCC(=O)N(C)[C@@H](C(C)C)C(=O)N[C@@H](Cc2ccc(OC)cc2)C(=O)O[C@H](C)C(=O)N2CCCC[C@H]2C(=O)N(C)[C@@H](C(C)C)C(=O)N[C@@H](C(C)C)C(=O)N(C)[C@H](CC(=O)NC(C)(C)C)C(=O)N(C)[C@@H]([C@@H](C)CC)C(=O)N1C"
[reply] 8.4

[ask] Value lookup for Activity; key = "CC[C@H](C)[C@H]1C(=O)NCC(=O)N(C)[C@@H](C(C)C)C(=O)N[C@@H](Cc2ccc(OC)cc2)C(=O)O[C@H](C)C(=O)N2CCCC[C@H]2C(=O)N(C)[C@@H](C(C)C)C(=O)N[C@@H](C(C)C)C(=O)N(C)[C@@H](CC(=O)OC)C(=O)N(C)[C@@H]([C@@H](C)CC)C(=O)N1C"
[reply] 8.4

[ask] Requested field: Activity. Item: "CC[C@@H](C)[C@H]1C(=O)NCC(=O)N(C)[C@@H](C(C)C)C(=O)N[C@@H](Cc2ccc(OC)cc2)C(=O)O[C@H](C)C(=O)N2CCCC[C@H]2C(=O)N(C)[C@@H](C(C)C)C(=O)N[C@@H](C(C)C)C(=O)N(C)[C@H](CC(=O)N[C@H](C(=O)OC(C)(C)C)C(C)C)C(=O)N(C)[C@@H]([C@@H](C)CC)C(=O)N1C"
[reply] 8.5

[ask] Item "CC[C@@H](C)[C@H]1C(=O)NCC(=O)N(C)[C@@H](C(C)C)C(=O)N[C@@H](Cc2ccc(OC)cc2)C(=O)O[C@H](C)C(=O)N2CCCC[C@H]2C(=O)N(C)[C@@H](C(C)C)C(=O)N[C@@H](C(C)C)C(=O)N(C)[C@H](CC(=O)NC(c2ccccc2)c2ccccc2)C(=O)N(C)[C@@H]([C@@H](C)CC)C(=O)N1C" has what recorded Activity?
[reply] 13

[ask] Activity lookup needed for "CC[C@@H](C)[C@H]1C(=O)NCC(=O)N(C)[C@@H](C(C)C)C(=O)N[C@@H](Cc2ccc(OC)cc2)C(=O)O[C@@H](C)C(=O)N2CCCC[C@H]2C(=O)N(C)[C@@H](C(C)C)C(=O)N[C@@H](C(C)C)C(=O)N(C)[C@H](CC(=O)NC23CC4CC(CC(C4)C2)C3)C(=O)N(C)[C@@H]([C@@H](C)CC)C(=O)N1C" , thanks.
[reply] 8

[ask] Given the entry "CC[C@H](C)[C@H]1C(=O)NCC(=O)N(C)[C@@H](C(C)C)C(=O)N[C@@H](Cc2ccc(OC)cc2)C(=O)O[C@H](C)C(=O)N2CCCC[C@H]2C(=O)N(C)[C@@H](C(C)C)C(=O)N[C@@H](C(C)C)C(=O)N(C)[C@@H](CC(=O)NCCC(C)C)C(=O)N(C)[C@@H]([C@@H](C)CC)C(=O)N1C" , report its measured Activity.
[reply] 8.1

====

test system: CHO; assay: The sensitizing capacity for colchicine treatment of parental (PAR)CHO cells at concentration 1.0 (mg/L); type: functional, Cricetulus griseus
Listed here: items and their measured Activity.
Enter the number alone.

CC[C@@H](C)[C@H]1C(=O)N(C)CC(=O)N(C)[C@@H](C(C)C)C(=O)N(C)[C@@H](Cc2ccc(OC)cc2)C(=O)O[C@H](C)C(=O)N2CCCC[C@H]2C(=O)N(C)[C@@H](C(C)C)C(=O)N(C)[C@@H](C(C)C)C(=O)N(C)[C@H](CC(=O)OC(C)(C)C)C(=O)N(C)[C@@H]([C@@H](C)CC)C(=O)N1C ... 8.7

// next entry
[ask] Value lookup for Activity; key = "CC[C@H](C)[C@H]1C(=O)NCC(=O)N(C)[C@@H](C(C)C)C(=O)N[C@@H](Cc2ccc(OC)cc2)C(=O)O[C@@H](C)C(=O)N2CCCC[C@H]2C(=O)N(C)[C@@H](C(C)C)C(=O)N[C@@H](C(C)C)C(=O)N(C)[C@@H](CC(=O)NC[Si](C)(C)C)C(=O)N(C)[C@@H]([C@@H](C)CC)C(=O)N1C"
[reply] 11

====

test system: CHO; experiment: Sensitization of colchicine treated parental (PAR)CHO cells, measured at concentration 0.1(mg/L); assay type: functional, Cricetulus griseus
assay_metric: Activity
Field format: numeric only.

CC[C@@H](C)[C@H]1C(=O)NCC(=O)N(C)[C@@H](C(C)C)C(=O)N[C@@H](Cc2ccc(OC)cc2)C(=O)O[C@H](C)C(=O)N2CCCC[C@H]2C(=O)N(C)[C@@H](C(C)C)C(=O)N[C@@H](C(C)C)C(=O)N(C)[C@H](CC(=O)NCC(C)(C)C)C(=O)N(C)[C@@H]([C@@H](C)CC)C(=O)N1C ... 7.4
CC[C@@H](C)[C@H]1C(=O)NCC(=O)N(C)[C@@H](C(C)C)C(=O)N[C@@H](Cc2ccc(OC)cc2)C(=O)O[C@H](C)C(=O)N2CCCC[C@H]2C(=O)N(C)[C@@H](C(C)C)C(=O)N[C@@H](C(C)C)C(=O)N(C)[C@H](CC(=O)N[C@H](CO)C(C)C)C(=O)N(C)[C@@H]([C@@H](C)CC)C(=O)N1C ... 7.6

Alright, here's another compound for you.
[ask] Name the recorded Activity for "CC[C@H](C)[C@H]1C(=O)N(C)[C@@H]([C@@H](C)CC)C(=O)NCC(=O)N(C)[C@@H](C(C)C)C(=O)N[C@@H](Cc2ccc(OC)cc2)C(=O)O[C@H](C)C(=O)N2CCCC[C@H]2C(=O)N(C)[C@@H](C(C)C)C(=O)N[C@@H](C(C)C)C(=O)N(C)[C@H](CC(=O)N2CCC[C@H]2C(=O)OC(C)(C)C)C(=O)N1C" .
[reply] 6.8

====

system: CHO; experiment: Sensitization of colchicine treated parental (PAR)CHO cells, measured at concentration 0.1(mg/L); format: functional, Cricetulus griseus
Non-standard residues stand in square brackets, D forms with d. Residues, ends and D or L forms follow the SMILES beside them. *: point of attachment. NMeI = CC[C@H](C)[C@H](NC)C(=O)O; NMeD = CN[C@@H](CC(=O)O)C(=O)O; NMeV = CN[C@H](C(=O)O)C(C)C; Pip = O=C(O)[C@@H]1CCCCN1; dLac = C[C@@H](O)C(=O)O; OtBu = CC(C)(C)O*
assay_metric: Activity
Please give only the number in your answer, with no unit.

CC[C@H](C)[C@H]1C(=O)NCC(=O)N(C)[C@@H](C(C)C)C(=O)N[C@@H](Cc2ccc(OC)cc2)C(=O)O[C@H](C)C(=O)N2CCCC[C@H]2C(=O)N(C)[C@@H](C(C)C)C(=O)N[C@@H](C(C)C)C(=O)N(C)[C@@H](CC(=O)NCc2ccco2)C(=O)N(C)[C@@H]([C@@H](C)CC)C(=O)N1C ... 6.8
CC[C@H](C)[C@H]1C(=O)NCC(=O)N(C)[C@@H](C(C)C)C(=O)N[C@@H](Cc2ccc(OC)cc2)C(=O)O[C@H](C)C(=O)N2CCCC[C@H]2C(=O)N(C)[C@@H](C(C)C)C(=O)N[C@@H](C(C)C)C(=O)N(C)[C@@H](CC(=O)OC)C(=O)N(C)[C@@H]([C@@H](C)CC)C(=O)N1C ... 6.4
CC[C@H](C)[C@H]1C(=O)NCC(=O)N(C)[C@@H](C(C)C)C(=O)N[C@@H](Cc2ccc(OC)cc2)C(=O)O[C@H](C)C(=O)N2CCCC[C@H]2C(=O)N(C)[C@@H](C(C)C)C(=O)N[C@@H](C(C)C)C(=O)N(C)[C@@H](CC(=O)OC23CC4CC(CC(C4)C2)C3)C(=O)N(C)[C@@H]([C@@H](C)CC)C(=O)N1C ... 4.5
CC[C@H](C)[C@H]1C(=O)NCC(=O)N(C)[C@@H](C(C)C)C(=O)N[C@@H](Cc2ccc(OC)cc2)C(=O)O[C@H](C)C(=O)N2CCCC[C@H]2C(=O)N(C)[C@@H](C(C)C)C(=O)N[C@@H](C(C)C)C(=O)N(C)[C@@H](CC(=O)OC(C)(C)C)C(=O)N(C)[C@@H]([C@@H](C)CC)C(=O)N1C (cyclo(G[NMeV]Y(Me)[dLac][Pip][NMeV]V[NMeD](OtBu)[NMeI][NMeI])) ... 4.6
CC[C@H](C)[C@H]1C(=O)NCC(=O)N(C)[C@@H](C(C)C)C(=O)N[C@@H](Cc2ccc(OC)cc2)C(=O)O[C@@H](C)C(=O)N2CCCC[C@H]2C(=O)N(C)[C@@H](C(C)C)C(=O)N[C@@H](C(C)C)C(=O)N(C)[C@@H](CC(=O)OCC23CC4CC(CC(C4)C2)C3)C(=O)N(C)[C@@H]([C@@H](C)CC)C(=O)N1C ... 6.9
C=CCOc1ccc(C[C@@H]2NC(=O)[C@H](C(C)C)N(C)C(=O)CNC(=O)[C@H]([C@@H](C)CC)N(C)C(=O)[C@H]([C@@H](C)CC)N(C)C(=O)[C@H](CC(=O)OC(C)(C)C)N(C)C(=O)[C@H](C(C)C)NC(=O)[C@H](C(C)C)N(C)C(=O)[C@@H]3CCCCN3C(=O)[C@@H](C)OC2=O)cc1 ... 5.8
CC[C@H](C)[C@H]1C(=O)NCC(=O)N(C)[C@@H](C(C)C)C(=O)N[C@@H](Cc2ccc(OC)cc2)C(=O)O[C@H](C)C(=O)N2CCCC[C@H]2C(=O)N(C)[C@@H](C(C)C)C(=O)N[C@@H](C(C)C)C(=O)N(C)[C@@H](CC(=O)OCC23CC4CC(CC(C4)C2)C3)C(=O)N(C)[C@@H]([C@@H](C)CC)C(=O)N1C ... 5.9
CC[C@@H](C)[C@H]1C(=O)NCC(=O)N(C)[C@@H](C(C)C)C(=O)N[C@@H](Cc2ccc(OC)cc2)C(=O)O[C@H](C)C(=O)N2CCCC[C@H]2C(=O)N(C)[C@@H](C(C)C)C(=O)N[C@@H](C(C)C)C(=O)N(C)[C@H](CC(=O)NC(c2ccccc2)c2ccccc2)C(=O)N(C)[C@@H]([C@@H](C)CC)C(=O)N1C ... 7.5

[ask] May I ask what Activity has been recorded for "CC[C@@H](C)[C@H]1C(=O)NCC(=O)N(C)[C@@H](C(C)C)C(=O)N[C@@H](Cc2ccc(OC)cc2)C(=O)O[C@H](C)C(=O)N2CCCC[C@H]2C(=O)N(C)[C@@H](C(C)C)C(=O)N[C@@H](C(C)C)C(=O)N(C)[C@H](CC(=O)NC(C)(C)C)C(=O)N(C)[C@@H]([C@@H](C)CC)C(=O)N1C" ?
[reply] 4.4

[ask] Param item = "CC[C@H](C)[C@H]1C(=O)NCC(=O)N(C)[C@@H](C(C)C)C(=O)N[C@@H](Cc2ccc(OC)cc2)C(=O)O[C@@H](C)C(=O)N2CCCC[C@H]2C(=O)N(C)[C@@H](C(C)C)C(=O)N[C@@H](C(C)C)C(=O)N(C)[C@@H](CC(=O)OCCC(C)(C)C)C(=O)N(C)[C@@H]([C@@H](C)CC)C(=O)N1C" ; retrieve measured Activity.
[reply] 6.7

[ask] Activity for "CC[C@@H](C)[C@H]1C(=O)NCC(=O)N(C)[C@@H](C(C)C)C(=O)N[C@@H](Cc2ccc(OC)cc2)C(=O)O[C@H](C)C(=O)N2CCCC[C@H]2C(=O)N(C)[C@@H](C(C)C)C(=O)N[C@@H](C(C)C)C(=O)N(C)[C@H](CC=O)C(=O)N(C)[C@@H]([C@@H](C)CC)C(=O)N1C" ?
[reply] 4.6

[ask] // Activity lookup, key: "CC[C@H](C)[C@H]1C(=O)NCC(=O)N(C)[C@@H](C(C)C)C(=O)N[C@@H](Cc2ccc(OC)cc2)C(=O)O[C@H](C)C(=O)N2CCCC[C@H]2C(=O)N(C)[C@@H](C(C)C)C(=O)N[C@@H](C(C)C)C(=O)N(C)[C@@H](CC(=O)OCCC(C)C)C(=O)N(C)[C@@H]([C@@H](C)CC)C(=O)N1C"
[reply] 5.7

[ask] Item CC[C@H](C)[C@H]1C(=O)N(C)[C@@H]([C@@H](C)CC)C(=O)NCC(=O)N(C)[C@@H](C(C)C)C(=O)N[C@@H](Cc2ccc(OC)cc2)C(=O)O[C@H](C)C(=O)N2CCCC[C@H]2C(=O)N(C)[C@@H](C(C)C)C(=O)N[C@@H](C(C)C)C(=O)N(C)[C@H](CN(C)C(C=O)CCCC(=O)OC(C)(C)C)C(=O)N1C (stereo partly drawn) has what recorded Activity?
[reply] 6.8
